Data provenance is ChEMBL document CHEMBL4616703.

- assay comment: Mean residence time in BALB/c mouse at 10 mg/kg, po administered as single dose measured after 24 hrs by LC-MS/MS analysis
- Type: ADME, organism-based
- study conditions: in vivo
property name: MRT (min)
Answers are plain numbers, in min.

// lookup MRT for Nc1nnc(N2CCC(N3Cc4ccccc4OC[C@@H]3Cc3ccc(Cl)cc3)CC2)[nH]1
50.4

* * *

- assay target: Voltage-gated inwardly rectifying potassium channel KCNH2 (Homo sapiens)
- Sequence (Q12809 whole entry): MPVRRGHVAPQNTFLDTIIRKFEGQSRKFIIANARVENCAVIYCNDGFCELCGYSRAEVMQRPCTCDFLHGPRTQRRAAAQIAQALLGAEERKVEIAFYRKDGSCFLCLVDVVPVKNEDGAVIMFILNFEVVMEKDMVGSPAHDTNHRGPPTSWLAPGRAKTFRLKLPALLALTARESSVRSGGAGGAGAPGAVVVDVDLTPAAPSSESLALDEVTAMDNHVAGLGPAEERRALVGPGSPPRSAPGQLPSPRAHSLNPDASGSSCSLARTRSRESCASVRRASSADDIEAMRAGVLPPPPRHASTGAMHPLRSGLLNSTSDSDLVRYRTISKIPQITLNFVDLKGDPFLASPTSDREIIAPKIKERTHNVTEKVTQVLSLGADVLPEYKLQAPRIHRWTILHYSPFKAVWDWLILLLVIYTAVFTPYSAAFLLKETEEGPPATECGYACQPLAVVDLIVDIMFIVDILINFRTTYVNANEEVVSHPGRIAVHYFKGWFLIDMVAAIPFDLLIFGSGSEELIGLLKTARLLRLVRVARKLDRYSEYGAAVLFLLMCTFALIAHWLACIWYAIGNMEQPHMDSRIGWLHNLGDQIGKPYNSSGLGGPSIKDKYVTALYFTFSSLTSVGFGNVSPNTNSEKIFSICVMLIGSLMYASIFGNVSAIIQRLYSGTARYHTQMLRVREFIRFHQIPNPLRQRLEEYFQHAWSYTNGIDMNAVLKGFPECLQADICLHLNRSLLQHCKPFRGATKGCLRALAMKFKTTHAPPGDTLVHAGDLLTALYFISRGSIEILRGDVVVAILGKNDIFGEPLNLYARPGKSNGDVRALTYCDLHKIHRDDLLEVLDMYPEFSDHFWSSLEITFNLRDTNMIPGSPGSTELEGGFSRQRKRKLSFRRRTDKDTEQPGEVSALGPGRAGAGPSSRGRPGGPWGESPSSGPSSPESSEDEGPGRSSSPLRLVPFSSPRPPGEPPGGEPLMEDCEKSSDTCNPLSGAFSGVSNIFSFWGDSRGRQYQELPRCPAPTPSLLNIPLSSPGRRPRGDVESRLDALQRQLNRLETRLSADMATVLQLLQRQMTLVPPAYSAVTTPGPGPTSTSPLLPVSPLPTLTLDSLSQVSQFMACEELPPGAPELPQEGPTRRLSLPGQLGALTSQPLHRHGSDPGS
- assay comment: Displacement of Tracer Red from human ERG by fluorescence polarization assay
What pIC50 was measured for each of the following?
One number for each entry, as −log10 of the molar value.

Nc1nnc(N2CCC(N3Cc4ccccc4OC[C@@H]3Cc3ccc(Cl)cc3)CC2)[nH]1; 4.66
Nc1nc(N2CCC(N(Cc3ccccc3)[C@H](CO)Cc3ccc(Cl)cc3)CC2)n[nH]1; 5.54
Nc1nc(N2CCC(N(CCc3ccc(Cl)cc3)Cc3cccc(O)c3)CC2)n[nH]1; 6.82

Dear reader, for each entry below, please note its pIC50.
1. CN1C[C@H](Cc2ccc(Cl)cc2)N(C2CCN(c3nnc(N)[nH]3)CC2)Cc2ccccc21
2. Nc1nc(N2CCC(N(CCc3ccc(Cl)cc3)Cc3ccc(Cl)cc3)CC2)n[nH]1
3. Nc1nc(N2CCC(N(CCc3ccc(Cl)cc3)Cc3ccccc3O)CC2)n[nH]1

5.49
6.40
7.00

Need pIC50 for each of these compounds.
1. N#Cc1ccc2c(c1)CN(C1CCN(c3n[nH]c(N)n3)CC1)[C@@H](Cc1ccc(Cl)cc1)CO2
2. Nc1nnc(N2CCC(N3Cc4ccncc4OC[C@@H]3Cc3ccc(Cl)cc3)CC2)[nH]1
3. CN1C[C@H](Cc2ccc(Cl)cc2)N(C2CCN(c3nnc(N)[nH]3)CC2)Cc2cc(Cl)ccc21
4. Nc1nc(N2CCC(N(CCc3ccc(Cl)cc3)Cc3cccc(Cl)c3)CC2)n[nH]1
5. Nc1nnc(N2CCC(N3Cc4cc(Cl)cc(Cl)c4OC[C@@H]3Cc3ccc(Cl)cc3)CC2)[nH]1
6. Nc1nc(N2CCC(N3Cc4cnccc4OC[C@@H]3Cc3ccc(Cl)cc3)CC2)n[nH]1
7. Nc1nc(N2CCC(N(CCc3ccc(Cl)cc3)Cc3ccncc3Cl)CC2)n[nH]1

4.64
4.30
6.10
5.43
5.22
4.77
5.19

Dear colleague, could you please provide pIC50 for the compounds listed below?
1. Nc1nc(N2CCC(N(CCc3ccc(Cl)cc3)Cc3cccc(C(F)(F)F)c3)CC2)n[nH]1
2. Nc1n[nH]c(N2CCC(N(CCc3ccc(Cl)cc3)Cc3ccccc3Cl)CC2)n1
3. Nc1nnc(N2CCC(N3Cc4cc(Cl)ccc4OC[C@@H]3Cc3ccc(Cl)cc3)CC2)[nH]1

1. 5.57
2. 5.70
3. 5.17

* * *

- assay target: UniProt:Q9BZP6
- assay comment: Inhibition of full length recombinant C-terminal His-tagged human acidic mammalian chitinase expressed in CHOK1 cells assessed as reduction in chitinolytic activity using 4-methylumbelliferyl-beta-D-N,N-diacetylchitobioside hydrate as substrate incubated for 60 mins under shaking condition by microplate fluorometry analysis
property name: IC50 (nM)
Numbers only, in nM.

Illustrative cases are given below, each with its answer.
Nc1nnc(N2CCC(N3Cc4ccncc4OC[C@@H]3Cc3ccc(Cl)cc3)CC2)[nH]1; 55
Nc1nnc(N2CCC(N3Cc4cc(Cl)cc(Cl)c4OC[C@@H]3Cc3ccc(Cl)cc3)CC2)[nH]1; 68
CN1C[C@H](Cc2ccc(Cl)cc2)N(C2CCN(c3nnc(N)[nH]3)CC2)Cc2cc(Cl)ccc21; 0.7
Nc1nc(N2CCC(N(CCc3ccc(Cl)cc3)Cc3cccc(C(F)(F)F)c3)CC2)n[nH]1; 12
C=C1COC[C@H](Cc2ccc(Cl)cc2)N(C2CCN(c3nnc(N)[nH]3)CC2)C1; 12

Please give IC50, item by item, for the list that follows.
1. CN(C1CCN(c2n[nH]c(N)n2)CC1)[C@H](COc1ccc(Cl)cc1)Cc1ccc(Cl)cc1
2. Nc1nc(N2CCC(N(CCc3ccc(Cl)cc3)Cc3ccccc3O)CC2)n[nH]1
3. Nc1nc(N2CCC(N(CCc3ccc(Cl)cc3)Cc3ccncc3Cl)CC2)n[nH]1
4. Nc1nc(N2CCC(N3Cc4cccnc4OC[C@@H]3Cc3ccc(Cl)cc3)CC2)n[nH]1

[580, 2, 15, 30]

* * *

- assay target: Acidic mammalian chitinase (Homo sapiens)
- Sequence (Q9BZP6 whole entry): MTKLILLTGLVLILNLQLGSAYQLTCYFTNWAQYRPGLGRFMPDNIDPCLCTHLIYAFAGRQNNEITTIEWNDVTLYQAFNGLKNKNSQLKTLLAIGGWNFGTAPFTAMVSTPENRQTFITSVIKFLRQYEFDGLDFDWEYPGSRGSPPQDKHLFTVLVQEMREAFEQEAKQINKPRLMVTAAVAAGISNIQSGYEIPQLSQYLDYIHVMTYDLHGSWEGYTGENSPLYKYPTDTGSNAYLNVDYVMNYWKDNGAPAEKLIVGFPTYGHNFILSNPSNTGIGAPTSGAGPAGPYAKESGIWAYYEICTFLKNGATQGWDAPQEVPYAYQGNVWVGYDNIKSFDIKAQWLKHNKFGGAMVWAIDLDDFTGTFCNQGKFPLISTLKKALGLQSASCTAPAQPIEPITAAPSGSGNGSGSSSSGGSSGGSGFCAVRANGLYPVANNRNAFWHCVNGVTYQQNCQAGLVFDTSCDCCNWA
- assay comment: Inhibition of full length recombinant C-terminal His-tagged human acidic mammalian chitinase expressed in CHOK1 cells assessed as reduction in chitinolytic activity using 4-methylumbelliferyl-beta-D-N,N-diacetylchitobioside hydrate as substrate incubated for 60 mins under shaking condition by microplate fluorometry analysis
- Set-up: species or system CHO-K1
property name: pIC50
Give bare numbers, as −log10 of the molar value.

Past entries and their recorded results:
Nc1nnc(N2CCC(N3Cc4ccccc4OC[C@@H]3Cc3ccc(Cl)cc3)CC2)[nH]1; 8.15
Nc1nc(N2CCC(N(Cc3ccccc3)[C@H](CO)Cc3ccc(Cl)cc3)CC2)n[nH]1; 6.61
CN1C[C@H](Cc2ccc(Cl)cc2)N(C2CCN(c3nnc(N)[nH]3)CC2)Cc2ccccc21; 8.85
Nc1nc(N2CCC(N3Cc4cnccc4OC[C@@H]3Cc3ccc(Cl)cc3)CC2)n[nH]1; 6.54

Query compound follows.
Param readout = pIC50; param system = Acidic mammalian chitinase (Homo sapiens); param query = Nc1nnc(N2CCC(N3Cc4cc(F)ccc4OC[C@@H]3Cc3ccc(Cl)cc3)CC2)[nH]1 ; response: value
8.15

* * *

- assay comment: Volume of distribution at steady state in BALB/c mouse at 3 mg/kg, iv administered as single bolus dose measured after 24 hrs by LC-MS/MS analysis
- Type: ADME, organism-based
- study conditions: in vivo, read-out: Vdss
property name: Vd (L/kg)
Give bare numbers, in L/kg.

Quick one: Vd for Nc1nnc(N2CCC(N3Cc4ccccc4OC[C@@H]3Cc3ccc(Cl)cc3)CC2)[nH]1 ?
0.35

* * *

- assay target: UniProt Q12809
- assay comment: Inhibition of human ERG expressed in CHO-K1 cells by automated Qpatch-clamp assay
- Assay type: cell-based
property name: IC50 (µM)
Answers are plain numbers, in µM.

Look up IC50: Nc1nnc(N2CCC(N3Cc4ccccc4OC[C@@H]3Cc3ccc(Cl)cc3)CC2)[nH]1
23

* * *

- assay comment: Cmax in Sprague-Dawley rat at 10 mg/kg, po administered as single dose measured after 24 hrs by LC-MS/MS analysis
- Type: ADME, organism-based
- Design: dose 10 mg/kg, route oral
- study conditions: in vivo
property name: log10 Cmax (log10 of the value in ng/mL)
In plain terms, each number is the log10 of measured Cmax in ng/mL.

List the reported log10 Cmax of each compound below.
1. Nc1nc(N2CCC(N(CCc3ccc(Cl)cc3)Cc3cccc(Cl)c3)CC2)n[nH]1
2. Nc1nc(N2CCC(N(CCc3ccc(Cl)cc3)Cc3cc(F)ccc3F)CC2)n[nH]1
3. Nc1nnc(N2CCC(N3Cc4ccccc4OC[C@@H]3Cc3ccc(Cl)cc3)CC2)[nH]1
4. Nc1nc(N2CCC(N(CCc3ccc(Cl)cc3)Cc3ccc(F)cc3Cl)CC2)n[nH]1

1. 2.89
2. 2.78
3. 3.53
4. 2.84

State the recorded log10 Cmax for every item in the following list.
1. Nc1nc(N2CCC(N(CCc3ccc(Cl)cc3)Cc3cccc(C(F)(F)F)c3)CC2)n[nH]1
2. Nc1nc(N2CCC(N(CCc3ccc(Cl)cc3)Cc3ccncc3Cl)CC2)n[nH]1

1. 3.20
2. 2.11
